System: intestinal alkaline phosphatase [Mus musculus]
Assay: mouse intestinal phosphatase enzyme activation – biochemical, luminescence, single concentration, confirmation (AID 434970)
Conditions: purified mouse IAP, CDP-Star luminescence, 30 min, at 10 µM; measured here: IAP activation factor, stronger effect = higher value
In all, about 11,000 compounds went through this assay and about 310 (2.8%) were called active. The sample as a whole holds a higher share of actives than the screen did.
assay-readout: activation factor
Form: value (number only, do not type unit).

Answered examples (2):
compound	activation factor
CCCC1C2C(=O)N(c3ccccc3OCC)C(=O)C2ON1c1ccccc1 (stereo unspecified)	1.1
O=C(NCCc1ccc(Cl)cc1)c1cccnc1	0.957

Ask: Looking for the measured activation factor of CCOC(=O)c1ccc(NC(=O)NC2CC3CCC(C2)N3Cc2nnnn2C(C)(C)C)cc1 (stereo unspecified) , can you help?
Result: 1.46

###

Test system: intestinal alkaline phosphatase [Mus musculus]
Assay: mouse intestinal phosphatase enzyme activation – biochemical, luminescence, single concentration, confirmation (AID 434970)
Conditions: purified mouse IAP, CDP-Star luminescence, 30 min, at 10 µM; stronger effect = lower value
In all, about 11,000 compounds went through this assay and about 310 (2.8%) were called active. The entries come from a sample that favours actives as a whole.
assay-readout: activity change, negative = activation (%)
The reply should be a number in %, with the unit left off.

Answered examples (5):
compound	target-of-assay	test-result
Cc1ccc(S(=O)(=O)NNC(=O)C2CCN(S(=O)(=O)c3ccc(C)cc3)CC2)cc1	intestinal alkaline phosphatase [Mus musculus]	3.85
Cc1ccc(S(=O)(=O)N2CCC(C(=O)Nc3ccc(S(=O)(=O)N4CCCC4)cc3)CC2)cc1C	intestinal alkaline phosphatase [Mus musculus]	-122
CC1CCCCC1NC(=S)Nc1ccc(SC(F)F)cc1 (stereo unspecified)	intestinal alkaline phosphatase [Mus musculus]	-51.8
COc1ccc(C(=O)Nc2ccc(S(=O)(=O)N3CCCCC3)cc2)cc1	intestinal alkaline phosphatase [Mus musculus]	-11
NC(=O)CSCc1cccc(Br)c1	intestinal alkaline phosphatase [Mus musculus]	-0.9

Ask: Looking for the measured activity change, negative = activation of CCOC(=O)CNC(=O)Nc1cccc(Cl)c1C , can you help?
Result: -4.45

Ask: Looking for the measured activity change, negative = activation of Nc1c(C(=O)NCCc2ccccc2)nnn1Cc1ccc(Cl)cc1 , can you help?
Result: -9.55

Ask: Looking for the measured activity change, negative = activation of Cc1ccc(S(=O)(=O)N2CCC(C(=O)N[C@@H](C)C(=O)NC3CCCCC3)CC2)cc1 , can you help?
Result: -8.65

Ask: Looking for the measured activity change, negative = activation of CCN(CC)C(C(=O)Nc1ccc(C(C)C)cc1)c1ccc2c(c1)OCO2 (stereo unspecified) , can you help?
Result: -48.4

Ask: Looking for the measured activity change, negative = activation of CCCN1Cc2cc(OC)ccc2-c2ccccc2S1(=O)=O , can you help?
Result: -13.1

Ask: Looking for the measured activity change, negative = activation of Cc1cc(C)cc(NC(=O)C2CCN(S(=O)(=O)c3ccc4c(c3)NC(=O)C(C)S4)CC2)c1 (stereo unspecified) , can you help?
Result: -96

###

System: intestinal alkaline phosphatase [Mus musculus]
Assay: mouse intestinal phosphatase enzyme activation – biochemical, luminescence, single concentration, confirmation (AID 434970)
Settings: purified mouse IAP, CDP-Star luminescence, 30 min, at 10 µM; measured here: IAP activation factor, stronger effect = higher value
About 310 (2.8%) of roughly 11,000 compounds were called active. Many of the other results were omitted from the sample, so actives are more common in it than they were.
Classes (activation factor): L = under 1, M = from 1 up to 2, H = 2 and over

compound	group-label
O=C(NOCc1ccccc1)c1ccccc1	L

Ask: Hello team, could you let me know which band the following compound falls into: Brc1ccc(-c2cnc(-c3cccs3)o2)cc1
Result: L

Ask: Hello team, could you let me know which band the following compound falls into: CCCN1C2CCCC1CC(NC(=O)c1cc(OC)c(OC)c(OC)c1)C2 (configuration not stated)
Result: L

Ask: Hello team, could you let me know which band the following compound falls into: Cc1ccc(C)c(CN2CCC(CNC(=O)Nc3ccc(Br)cc3F)CC2)c1
Result: M

Ask: Hello team, could you let me know which band the following compound falls into: CC(NC(=S)NC1CCC(C(C)(C)C)CC1)c1ccccc1 (configuration not stated)
Result: M

Ask: Hello team, could you let me know which band the following compound falls into: S=C(NCCC(c1ccccc1)c1ccccc1)Nc1ccccc1Cl
Result: M

Ask: Hello team, could you let me know which band the following compound falls into: Cc1ccc(C)c(CN2CCC(CNC(=O)Nc3ccc(C)c(F)c3)CC2)c1
Result: H

Ask: Hello team, could you let me know which band the following compound falls into: CN(c1ccccc1C(=O)NCc1ccccn1)S(C)(=O)=O
Result: M

Ask: Hello team, could you let me know which band the following compound falls into: Cc1cc(C)cc(NC(=O)NCC2CCN(Cc3cc(C)ccc3C)CC2)c1
Result: H

Ask: Hello team, could you let me know which band the following compound falls into: COCCNC(=O)Cn1c(=O)n(Cc2ccco2)c(=O)c2ccccc21
Result: M

Ask: Hello team, could you let me know which band the following compound falls into: Cc1ccc(CNC(N)=S)cc1
Result: M

Source listed as PubChem BioAssay AID434970.
